This collection of values is drawn from patent US20250026813A1.

Measured koff accompanies every entry in the list below.
Target: SARS-CoV-2 spike protein receptor binding domain (isolated RBD) (SARS-CoV-2, UniProt P0DTC2 319-541)
MEASURED PROPERTY: koff

BINDER | TEST RESULT
IMPI-006 (antibody, V domains shown) VH: QLQLQESGPGLVKPSETLSLTCTVSGGSISNSNYYWGWIRQPPGKGLEWIGSIYYSGRTYYNPSLKSRVTISVDTSKNQFSLKLSSVTAADTAVYYCARMGLLWFGEFYGMDVWGQGTTVTVSS VL: DIQMTQSPSSLSASVGDRVTITCRASQGISSWLAWYQQKPEKAPKSLIYDASSLQRGVPSRFSGSGSGTDFTLTISSLQPEDFASYYCQQYNSYPLTFGGGTRVEIK | 8.19 s⁻¹
IMPI-055 (antibody, V domains shown) VH: QVQLVQSGAEVKKPGASVKVSCKASGYTFTSYDINWVRQATGQGLEWMGWMNPNSGNTGYAQKFQGRVTMTRDTSINTAYMELSSLRSEDTAVYFCARGGRYCSDVTCYSGEPFDYWGQGTLVTVSS VL: EIMLTQSPDFQSVTPKEKVTITCRASQSIGSSLHWYQQKPDQSPKLLIKFASQSISGVPSRFSGSGSGTDFTLTINSLEAEDAAAYYCHQSSSLPHTFGPGTKVEIK | 0.00264 s⁻¹
